- SYSTEM_UNDER_TEST: T1, IL-18 receptors on HEK-Blue IL-18 reporter cells (UniProt Q13478 19-541; O95256 20-599, limits assumed); also: unit not given here
- T1 sequence (looked up) 1: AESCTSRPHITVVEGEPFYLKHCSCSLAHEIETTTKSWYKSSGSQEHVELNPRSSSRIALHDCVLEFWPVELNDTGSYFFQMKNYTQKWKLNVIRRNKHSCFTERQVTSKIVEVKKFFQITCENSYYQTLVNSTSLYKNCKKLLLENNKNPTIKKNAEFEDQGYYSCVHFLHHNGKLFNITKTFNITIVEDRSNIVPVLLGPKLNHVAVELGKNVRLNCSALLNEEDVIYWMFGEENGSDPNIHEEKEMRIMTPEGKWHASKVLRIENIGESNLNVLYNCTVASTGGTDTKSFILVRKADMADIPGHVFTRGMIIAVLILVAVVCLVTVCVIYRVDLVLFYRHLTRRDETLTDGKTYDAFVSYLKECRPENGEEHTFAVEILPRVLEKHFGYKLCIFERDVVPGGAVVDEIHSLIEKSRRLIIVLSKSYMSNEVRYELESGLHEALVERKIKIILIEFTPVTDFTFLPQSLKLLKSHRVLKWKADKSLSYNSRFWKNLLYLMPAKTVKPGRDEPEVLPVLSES
- T1 sequence (looked up) 2: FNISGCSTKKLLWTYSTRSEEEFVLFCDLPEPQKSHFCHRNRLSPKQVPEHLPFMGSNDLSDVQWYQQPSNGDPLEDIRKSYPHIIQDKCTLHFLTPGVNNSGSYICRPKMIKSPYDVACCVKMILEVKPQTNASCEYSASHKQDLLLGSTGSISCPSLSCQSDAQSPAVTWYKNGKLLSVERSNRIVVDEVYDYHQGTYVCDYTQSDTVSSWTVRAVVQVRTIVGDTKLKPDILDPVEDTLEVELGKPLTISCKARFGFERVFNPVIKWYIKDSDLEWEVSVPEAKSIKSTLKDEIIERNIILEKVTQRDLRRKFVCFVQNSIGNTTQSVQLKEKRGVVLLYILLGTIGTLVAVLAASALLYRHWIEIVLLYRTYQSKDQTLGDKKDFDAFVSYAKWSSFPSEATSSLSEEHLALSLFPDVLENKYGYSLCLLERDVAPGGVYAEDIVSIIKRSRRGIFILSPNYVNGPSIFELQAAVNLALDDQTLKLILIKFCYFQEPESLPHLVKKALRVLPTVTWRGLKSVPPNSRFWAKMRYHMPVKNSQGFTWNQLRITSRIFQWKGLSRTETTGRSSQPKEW
- METHOD: cell-based or functional assay
HEK-Blue activity, No BP, DF-10000 reference
Just the number, please.

Consider the worked cases shown below.
IL-18 variant K53T, S55G, P107A, H109Q (ligand) YFGKLESKLSVIRNLNDQVLFIDQGNRPLFEDMTDSDMRDNAPRTIFIISMYTDGQPRGMAVTISVKSEKISTLSSENKIISFKEMNPPDNIKDTKSDIIFFQRSVAGQDNKMQFESSSYEGYFLASEKERDLFKLILKKEDELGDRSIMFTVQNED
0.13
IL-18 variant K53D, S55Q, P107M (ligand) YFGKLESKLSVIRNLNDQVLFIDQGNRPLFEDMTDSDMRDNAPRTIFIISMYDDQQPRGMAVTISVKSEKISTLSSENKIISFKEMNPPDNIKDTKSDIIFFQRSVMGHDNKMQFESSSYEGYFLASEKERDLFKLILKKEDELGDRSIMFTVQNED
0.19

Next:
Qu. If you can, please state the reported HEK-Blue activity, No BP, DF-10000 value of IL-18 variant K53L, S55E (ligand) YFGKLESKLSVIRNLNDQVLFIDQGNRPLFEDMTDSDMRDNAPRTIFIISMYLDEQPRGMAVTISVKSEKISTLSSENKIISFKEMNPPDNIKDTKSDIIFFQRSVPGHDNKMQFESSSYEGYFLASEKERDLFKLILKKEDELGDRSIMFTVQNED .
Ans. 0.14
